- System Under Test: human recombinant AChE (Homo sapiens, UniProt P22303)
- Construct: made in house
- Sequence (P22303 32-614): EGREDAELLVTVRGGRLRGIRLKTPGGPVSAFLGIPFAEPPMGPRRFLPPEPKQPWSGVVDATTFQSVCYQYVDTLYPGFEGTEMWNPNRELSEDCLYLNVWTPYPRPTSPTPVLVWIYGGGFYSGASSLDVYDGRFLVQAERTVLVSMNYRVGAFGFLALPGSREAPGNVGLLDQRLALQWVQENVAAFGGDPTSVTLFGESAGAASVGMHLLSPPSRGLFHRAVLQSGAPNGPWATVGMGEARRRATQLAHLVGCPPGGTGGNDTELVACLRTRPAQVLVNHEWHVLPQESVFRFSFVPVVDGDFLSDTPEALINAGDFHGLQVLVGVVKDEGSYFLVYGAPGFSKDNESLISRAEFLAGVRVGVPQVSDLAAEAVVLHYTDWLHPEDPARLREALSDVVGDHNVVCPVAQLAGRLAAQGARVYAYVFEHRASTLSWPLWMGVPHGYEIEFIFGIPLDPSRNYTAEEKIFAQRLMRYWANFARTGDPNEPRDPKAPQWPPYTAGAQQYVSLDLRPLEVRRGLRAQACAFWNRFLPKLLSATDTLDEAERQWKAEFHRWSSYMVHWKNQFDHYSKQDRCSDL
- Assay: AChE inhibition, Ellman assay
- Assay type: biochemical
- Condition: IC50, human recombinant AChE, 37°C, pH 7.4
Readout Label: log10 of IC50 (log10 of the value in µM)

{"columns": ["Smiles Record", "log10 of IC50"],
 "data": [
  ["Cc1cc(O)c2c(c1)C(=O)c1cccc(O)c1C2=O", 1.88],
  ["O=C(O)c1cc(O)c2c(c1)C(=O)c1cccc(O)c1C2=O", 2.37],
  ["Cc1cc(O)c2c(c1)C(=O)c1cc(O)cc(O)c1C2=O", 1.34],
  ["O=C1c2cccc(O)c2C(=O)c2c(O)cc(CO)cc21", 1.43],
  ["CC(=O)O[C@H](CC=C(C)C)C1=CC(=O)c2c(O)ccc(O)c2C1=O", 1.54],
  ["CC(C)=CC[C@@H](O)C1=CC(=O)c2c(O)ccc(O)c2C1=O", 1.86]
]}

Just for reference, paper PMC3835493 is where these values come from.
